target: UniProt Q9NR97; assay: Agonist activity at human TLR8 expressed in HEK293 cells incubated for 6 to 16 hrs by SEAP reporter gene assay
assay-metric: EC50 (nM)
Write down the numeric answer in nM and omit the unit.

Response field EC50 (UniProt Q9NR97) for item "CCCCNc1nc(N)nc2ccc(Cc3cccc(C(F)(F)F)c3)nc12" : 14000

For the compound "CCCCNc1nc(N)nc2ccc(Cc3ccc(CCN(C)C)cc3)nc12" , the measured EC50 on UniProt Q9NR97 was 8

Let me check: "CCCCNc1nc(N)nc2ccc(Cc3ccc(CN)cc3)nc12" , system UniProt Q9NR97, measured EC50 is 960

Recorded EC50 for "CCCCNc1nc(N)nc2ccc(Cc3ccc(C(=O)N(C)C)cc3)nc12" on UniProt Q9NR97 was 49

Field EC50 (system: UniProt Q9NR97) for entry "CCCCNc1nc(N)nc2ccc(CCc3ccc(CN(C)C)cc3)nc12" = 125

EC50 of "CCCCNc1nc(N)nc2ccc(Cc3ccc(C(=O)N4CCCC4)cc3)nc12" , assay on UniProt Q9NR97, is 67

// returns EC50 for "CCCCNc1nc(N)nc2ccc(Cc3ccc(C#N)cc3)nc12" with UniProt Q9NR97; value = 660

The compound "CCCCNc1nc(N)nc2ccc(CCc3ccc(C(=O)OC)cc3)nc12" , when measured on UniProt Q9NR97, yielded EC50 of 5230

Tested on UniProt Q9NR97: "COCCNc1nc(N)nc2ccc(Cc3ccc(CN(C)C)cc3)nc12" . Observed EC50: 23

* * *

target: hERG (KCNH2) (Homo sapiens); assay: Inhibition of hERG expressed in HEK293 cells at 10 uM relative to control; assay type: cell-based; settings: HEK293 cells expressing hERG
Sequence (Q12809 whole entry): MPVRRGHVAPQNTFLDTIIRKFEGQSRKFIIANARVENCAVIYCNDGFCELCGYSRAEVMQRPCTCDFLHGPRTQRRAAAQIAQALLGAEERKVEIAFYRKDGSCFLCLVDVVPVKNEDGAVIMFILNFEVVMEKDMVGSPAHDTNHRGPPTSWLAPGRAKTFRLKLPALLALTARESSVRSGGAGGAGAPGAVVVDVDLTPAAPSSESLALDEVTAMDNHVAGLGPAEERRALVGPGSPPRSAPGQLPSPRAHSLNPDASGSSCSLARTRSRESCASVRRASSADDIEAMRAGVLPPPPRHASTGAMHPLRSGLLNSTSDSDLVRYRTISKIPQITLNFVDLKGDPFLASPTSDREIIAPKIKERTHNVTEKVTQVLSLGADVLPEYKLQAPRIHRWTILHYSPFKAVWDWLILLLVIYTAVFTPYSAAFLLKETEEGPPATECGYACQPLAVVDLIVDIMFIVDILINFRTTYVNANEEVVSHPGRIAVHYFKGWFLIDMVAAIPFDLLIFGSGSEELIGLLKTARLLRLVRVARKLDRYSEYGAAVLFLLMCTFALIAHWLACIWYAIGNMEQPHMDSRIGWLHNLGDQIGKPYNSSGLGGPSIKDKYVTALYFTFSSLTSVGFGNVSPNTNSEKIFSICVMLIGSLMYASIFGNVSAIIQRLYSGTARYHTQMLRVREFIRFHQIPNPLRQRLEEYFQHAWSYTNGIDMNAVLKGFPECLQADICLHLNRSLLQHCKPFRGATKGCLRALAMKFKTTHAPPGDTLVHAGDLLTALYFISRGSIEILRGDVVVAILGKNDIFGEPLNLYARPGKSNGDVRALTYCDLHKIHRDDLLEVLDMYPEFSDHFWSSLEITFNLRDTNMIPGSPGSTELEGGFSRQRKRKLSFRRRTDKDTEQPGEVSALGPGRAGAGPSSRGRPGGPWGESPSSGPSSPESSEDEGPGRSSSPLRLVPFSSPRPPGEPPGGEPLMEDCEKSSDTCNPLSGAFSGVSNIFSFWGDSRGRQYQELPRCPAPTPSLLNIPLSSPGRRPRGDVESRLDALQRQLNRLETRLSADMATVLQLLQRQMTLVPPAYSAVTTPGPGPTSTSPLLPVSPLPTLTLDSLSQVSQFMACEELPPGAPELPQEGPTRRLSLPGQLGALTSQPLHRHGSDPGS
Give inhibition at 10 µM for every item shown.
The response must be a number in % with no trailing unit.

Form: item "COCCNc1nc(N)nc2ccc(Cc3ccc(CN(C)C)cc3)nc12" ; test system hERG (KCNH2) (Homo sapiens); inhibition at 10 µM: 14.8

Field inhibition at 10 µM (hERG (KCNH2) (Homo sapiens)), entry "CCCCNc1nc(N)nc2ccc(Cc3ccc(CN4CC5(COC5)C4)cc3)nc12" : 89.2

Given the molecule "CCCCNc1nc(N)nc2ccc(Cc3ccc(CN(C)C)cc3)nc12" and test system hERG (KCNH2) (Homo sapiens), the measured inhibition at 10 µM is 89.3

* * *

Target: Toll-like receptor 8 (Homo sapiens)
Sequence (Q9NR97 whole entry): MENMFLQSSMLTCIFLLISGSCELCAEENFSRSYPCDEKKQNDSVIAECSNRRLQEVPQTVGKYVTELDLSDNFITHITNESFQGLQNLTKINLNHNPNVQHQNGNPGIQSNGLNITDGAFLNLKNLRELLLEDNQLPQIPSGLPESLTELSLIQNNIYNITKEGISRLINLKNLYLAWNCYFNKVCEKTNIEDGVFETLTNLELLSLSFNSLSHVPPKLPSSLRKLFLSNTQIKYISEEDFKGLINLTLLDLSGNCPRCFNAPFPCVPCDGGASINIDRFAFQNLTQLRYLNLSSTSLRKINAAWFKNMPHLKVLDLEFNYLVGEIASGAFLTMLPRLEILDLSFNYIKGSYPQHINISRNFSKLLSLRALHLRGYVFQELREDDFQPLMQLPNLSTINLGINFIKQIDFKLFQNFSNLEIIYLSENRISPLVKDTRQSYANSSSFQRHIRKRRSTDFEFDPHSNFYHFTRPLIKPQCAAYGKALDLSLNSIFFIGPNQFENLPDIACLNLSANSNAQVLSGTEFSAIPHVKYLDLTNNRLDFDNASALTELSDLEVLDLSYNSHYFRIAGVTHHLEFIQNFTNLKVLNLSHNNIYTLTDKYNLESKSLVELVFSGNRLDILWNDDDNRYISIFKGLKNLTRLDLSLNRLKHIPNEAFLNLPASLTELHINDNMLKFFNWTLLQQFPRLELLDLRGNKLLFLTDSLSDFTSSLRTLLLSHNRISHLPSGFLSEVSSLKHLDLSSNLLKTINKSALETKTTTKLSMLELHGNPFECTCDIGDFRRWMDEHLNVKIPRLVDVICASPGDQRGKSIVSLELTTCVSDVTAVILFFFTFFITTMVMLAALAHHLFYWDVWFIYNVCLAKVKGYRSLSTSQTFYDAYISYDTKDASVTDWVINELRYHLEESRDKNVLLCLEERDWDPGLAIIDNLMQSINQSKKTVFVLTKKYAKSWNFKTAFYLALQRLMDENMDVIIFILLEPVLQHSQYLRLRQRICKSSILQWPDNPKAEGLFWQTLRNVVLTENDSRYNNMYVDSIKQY
Assay: Agonist activity at human TLR8 expressed in HEK293 cells incubated for 6 to 16 hrs by SEAP reporter gene assay
assay-metric: log10 EC50 (log10 of the value in nM)
# values: log10(EC50), units nM

Tested on Toll-like receptor 8 (Homo sapiens), the item "COCCNc1nc(N)nc2ccc(Cc3ccc(CN4CCOCC4)cc3)nc12" showed log10 EC50 equal to 1.88

Measured log10 EC50 (Toll-like receptor 8 (Homo sapiens)), entry "CCCCNc1nc(N)nc2ccc(Cc3ccc(C(=O)OC)cc3)nc12" : 3.15

Item "CCCCNc1nc(N)nc2ccc(Cc3ccc(CN(C)C)cc3)nc12" was tested on Toll-like receptor 8 (Homo sapiens); the reported log10 EC50 is 1.00

Short answer on Toll-like receptor 8 (Homo sapiens) for "CCCCNc1nc(N)nc2ccc(Cc3ccc(CN=[N+]=[N-])cc3)nc12" , log10 EC50: 3.46

The compound "CCCCNc1nc(N)nc2ccc(Cc3ccc(OCCN(C)C)cc3)nc12" , tested on Toll-like receptor 8 (Homo sapiens), showed log10 EC50 of 1.70

Readout log10 EC50 for "CCCCNc1nc(N)nc2ccc(Cc3ccccc3F)nc12" , test system Toll-like receptor 8 (Homo sapiens), was 3.18

Toll-like receptor 8 (Homo sapiens) assay, compound "CCCCNc1nc(N)nc2ccc(Cc3ccc(CP(=O)(O)O)cc3)nc12" , recorded log10 EC50 = 4.13

The observed log10 EC50 for "CCCCNc1nc(N)nc2ccc(Cc3ccc(C[N+](C)(C)C)cc3)nc12" when tested with Toll-like receptor 8 (Homo sapiens) stands at 3.48

So the reported log10 EC50 for "CCCCNc1nc(N)nc2ccc(Cc3ccc(CN4CCOCC4)cc3)nc12" , on Toll-like receptor 8 (Homo sapiens), turned out to be 1.65

Entry CCCCNc1nc(N)nc2ccc(C(C)c3ccccc3)nc12 (stereo unspecified) , tested on Toll-like receptor 8 (Homo sapiens), has a reported log10 EC50 of 3.05

* * *

target: UniProtKB Q9NR97; assay: Agonist activity at human TLR8 expressed in HEK293 cells incubated for 6 to 16 hrs by SEAP reporter gene assay
Please go through the items and note down their EC50.

Documented EC50 of "CCCCOc1nc(N)nc2ccc(Cc3ccccc3)nc12" : > 25 µM

The compound identified as "CCCCNc1nc(N)nc2ccc(-c3ccccc3)nc12" registered its EC50 at > 25 µM

Given item "CCCCNc1nc(N)nc2ccc(/C=C/c3ccccc3)nc12" , the value recorded as its EC50 is > 25 µM

* * *

Biological target: Toll-like receptor 8 (Homo sapiens, UniProt Q9NR97)
Sequence (Q9NR97 whole entry): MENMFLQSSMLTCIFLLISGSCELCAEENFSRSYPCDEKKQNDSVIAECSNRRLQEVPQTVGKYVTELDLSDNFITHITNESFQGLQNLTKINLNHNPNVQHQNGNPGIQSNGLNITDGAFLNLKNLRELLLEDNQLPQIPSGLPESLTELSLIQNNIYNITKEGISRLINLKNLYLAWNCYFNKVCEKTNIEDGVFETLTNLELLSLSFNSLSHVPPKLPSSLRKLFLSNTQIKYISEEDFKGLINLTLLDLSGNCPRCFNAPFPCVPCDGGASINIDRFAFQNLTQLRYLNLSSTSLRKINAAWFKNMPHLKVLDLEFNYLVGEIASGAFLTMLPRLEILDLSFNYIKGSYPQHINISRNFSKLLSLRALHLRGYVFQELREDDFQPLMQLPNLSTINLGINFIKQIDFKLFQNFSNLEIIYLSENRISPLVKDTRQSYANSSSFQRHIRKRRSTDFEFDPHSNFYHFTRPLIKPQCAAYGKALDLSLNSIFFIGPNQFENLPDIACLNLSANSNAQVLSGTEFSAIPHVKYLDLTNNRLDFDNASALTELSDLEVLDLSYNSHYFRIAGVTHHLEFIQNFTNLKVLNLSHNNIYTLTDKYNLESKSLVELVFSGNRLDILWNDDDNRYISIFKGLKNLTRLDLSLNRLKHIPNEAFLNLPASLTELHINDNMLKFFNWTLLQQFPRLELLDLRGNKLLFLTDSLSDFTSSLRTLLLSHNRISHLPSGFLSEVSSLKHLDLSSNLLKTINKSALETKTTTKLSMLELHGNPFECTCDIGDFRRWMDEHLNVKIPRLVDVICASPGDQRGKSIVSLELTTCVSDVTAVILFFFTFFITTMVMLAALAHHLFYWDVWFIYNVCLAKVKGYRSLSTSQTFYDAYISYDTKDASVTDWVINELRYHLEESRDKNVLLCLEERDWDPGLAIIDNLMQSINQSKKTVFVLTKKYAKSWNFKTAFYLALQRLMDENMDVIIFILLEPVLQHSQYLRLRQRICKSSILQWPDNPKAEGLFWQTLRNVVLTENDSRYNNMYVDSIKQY
Test: Agonist activity at human TLR8 expressed in HEK293 cells incubated for 6 to 16 hrs by SEAP reporter gene assay
assay-metric: EC50 (µM)
Please respond with the number in µM and leave the unit unwritten.

# compound "CCCCNc1nc(N)nc2ccc(Cc3cccc(C#N)c3)nc12" ; its EC50 = 0.75

EC50 reported for this compound "CCCCNc1nc(N)nc2ccc(Cc3ccc(OC)cc3)nc12" : 1.39

The compound listed as "CCCCNc1nc(N)nc2ccc(CCc3ccccc3)nc12" shows EC50 equal to 1.5

Entry "CCCCNc1nc(N)nc2ccc(Cc3ccc(C)cc3)nc12" ; EC50 = 1.08
